EXPERIMENTAL_TARGET: Translocator protein (Homo sapiens, UniProt P30536)
Sequence (P30536 whole entry): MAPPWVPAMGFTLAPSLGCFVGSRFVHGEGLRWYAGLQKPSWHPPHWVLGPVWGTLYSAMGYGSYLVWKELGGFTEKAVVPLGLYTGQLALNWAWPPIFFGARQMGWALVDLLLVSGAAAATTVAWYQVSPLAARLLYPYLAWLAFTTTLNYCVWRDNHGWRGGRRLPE
TEST_PROTOCOL: Inhibition of TSPO (unknown origin) in mouse MA-10 cells assessed as increase in steroid steroidogenesis
I'd appreciate it if you marked entries class 1 when EC50 is lower than 7 µM and class 0 when it is not.

Solved cases (3 shown):
Please determine if `CCCN(CCC)C(=O)Cc1c(-c2ccc(Cl)cc2)nc2c(Cl)cc(Cl)cn12` is below 7 µM in terms of EC50. class 1

Please determine if `CCCN(CCC)C(=O)Cc1c(-c2ccc(Cl)cc2)nc2c(NCC(=O)O)cccn12` is below 7 µM in terms of EC50. class 0

Please determine if `CCCN(CCC)C(=O)Cc1c(-c2ccc(OC)cc2)nc2c(Cl)cc(Cl)cn12` is below 7 µM in terms of EC50. class 1

***
Please determine if `CCCN(CCC)C(=O)Cc1c(-c2ccc(OC)cc2)nc2ccc(Cl)cn12` is below 7 µM in terms of EC50. class 0

Please determine if `CCCN(CCC)C(=O)Cc1c(-c2ccc(OCC(=O)O)cc2)nc2c(Cl)cc(Cl)cn12` is below 7 µM in terms of EC50. class 0

----------
EXPERIMENTAL_TARGET: Translocator protein (Rattus norvegicus, UniProt P16257)
Sequence (P16257 whole entry, looked up): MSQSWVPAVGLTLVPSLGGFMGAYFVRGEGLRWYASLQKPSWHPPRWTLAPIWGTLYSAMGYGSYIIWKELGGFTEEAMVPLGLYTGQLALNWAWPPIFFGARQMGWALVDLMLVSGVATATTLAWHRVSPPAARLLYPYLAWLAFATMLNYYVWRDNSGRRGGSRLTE
TEST_PROTOCOL: Displacement of [3H]-Ro54864 from TSPO receptor in rat heart microsomes incubated for 45 mins by scintillation method
Design: species or system Microsome
READOUT: IC50 (µM)
Record the value in µM, omitting the unit from your answer.

These solved cases illustrate the format of a correct answer.
I am curious: what IC50 value has been reported for `CCN(CC)C(=O)Cn1c(=O)n2c(C)c(-c3ccccc3)nc2c2ccccc21` ? 0.009

I am curious: what IC50 value has been reported for `CCCN(CCC)C(=O)Cn1c(=O)n2cc(-c3ccccc3)nc2c2ccccc21` ? 0.012

I am curious: what IC50 value has been reported for `CCN(CC)C(=O)Cn1c(=O)n2cc(-c3ccc(OC)c(OC)c3)nc2c2ccccc21` ? 0.5

I am curious: what IC50 value has been reported for `Oc1nc2ccccc2c2nc(-c3ccccc3)nn12` ? 0.015

Would you kindly look at the next entry?
I am curious: what IC50 value has been reported for `CCN(CC)C(=O)Cn1c(=O)n2cc(-c3ccccc3)nc2c2ccccc21` ? 0.08

----------
TEST_PROTOCOL: Lipophilicity, logD of the compound
Assay type: physicochemical
RECORDED_CONDITIONS: octanol/water
READOUT: logD
// return just the number, without any unit appended

I am curious: what logD value has been reported for `CN(C(=O)Cn1c(=O)oc2ccc(-c3cccc([N+](=O)[O-])c3)cc21)c1ccccc1O[11CH3]` ? 2.08

***
I am curious: what logD value has been reported for `COc1ccc(-c2ccc3oc(=O)n(CC(=O)N(C)c4ccccc4)c3c2)cc1` ? 3.5

----------
TEST_PROTOCOL: Lipophilicity, logD of the compound in 1-octanol and phosphate buffer in pH 7.4 incubated for 3 mins
Format: physicochemical
RECORDED_CONDITIONS: 1-octanol/phosphate buffer
READOUT: logD at 0.05 h
// return just the number, without any unit appended

I am curious: what logD at 0.05 h value has been reported for `CC(=O)N(Cc1ccccc1OC[18F])c1cnccc1Oc1ccccc1` ? 2.85

***
I am curious: what logD at 0.05 h value has been reported for `CC(=O)N(Cc1ccccc1O[11CH3])c1cnccc1Oc1ccccc1` ? 2.82

----------
TEST_PROTOCOL: Displacement of [3H]flunitrazepam from CBR receptor in rat brain cerebral cortex by liquid scintillation spectrometer method
Assay type: tissue-based
pIC50: −log10 of the molar value.
In this section we review reported pIC50 values for a set of molecules.

I am curious: what pIC50 value has been reported for `COc1ccc(OC)c(CN(C(C)=O)c2cc(F)ccc2Oc2ccccc2)c1` ? < 6.00

Would you kindly look at the next entry?
I am curious: what pIC50 value has been reported for `CC(=O)N(Cc1ccccc1OC(C)C)c1ccc(Cl)cc1Oc1ccccc1` ? < 6.00

----------
In this section we review reported log10(IC50) values for a set of compounds.
EXPERIMENTAL_TARGET: Translocator protein (Rattus norvegicus)
TEST_PROTOCOL: Displacement of [3H]-PK11195 from TSPO receptor in rat heart microsomes incubated for 15 mins by scintillation method
Parameters: species or system Microsome
Reminder: these figures are log10 of reported IC50, in nM before transformation.

These solved cases illustrate the format of a correct answer.
I am curious: what log10(IC50) value has been reported for `CCN(CC)C(=O)Cn1c(=O)n2cc(-c3ccccc3)nc2c2ccccc21` ? 2.60

I am curious: what log10(IC50) value has been reported for `CCN(CC)C(=O)Cn1c(=O)n2nc(-c3ccccc3)nc2c2ccccc21` ? 3.23

I am curious: what log10(IC50) value has been reported for `CCN(CC)C(=O)Cn1c(=O)n2cc(-c3ccc(OC)c(OC)c3)nc2c2ccccc21` ? 2.18

I am curious: what log10(IC50) value has been reported for `CCCN(CCC)C(=O)Cn1c(=O)n2cc(-c3ccccc3)nc2c2ccccc21` ? 1.04

I am curious: what log10(IC50) value has been reported for `Oc1nc2ccccc2c2nc(-c3ccccc3)nn12` ? 3.99

Would you kindly look at the next entry?
I am curious: what log10(IC50) value has been reported for `CCN(CC)C(=O)Cn1c(=O)n2c(C)c(-c3ccccc3)nc2c2ccccc21` ? 1.46

----------
EXPERIMENTAL_TARGET: Translocator protein (Homo sapiens, UniProt P30536)
TEST_PROTOCOL: Displacement of [3H]-PK11195 from TSPO receptor in human Leucocyte incubated for 30 mins by beta-counter analysis
Format: cell-based
READOUT: pIC50
When answering, recall that pIC50 equals minus log10 of the concentration in mol/L, and write that number alone.

I am curious: what pIC50 value has been reported for `CC(=O)N(Cc1ccccc1O[11CH3])c1cnccc1Oc1ccccc1` ? 8.09

----------
EXPERIMENTAL_TARGET: Translocator protein (Rattus norvegicus, UniProt P16257)
TEST_PROTOCOL: Displacement of [3H]-flunitrazepam from TSPO receptor in Wistar rat brain without cerebellum incubated for 90 mins by liquid scintillation counter analysis
Assay type: tissue-based
READOUT: pKi
When answering, recall that pKi equals minus log10 of the concentration in mol/L, and write that number alone.

These solved cases illustrate the format of a correct answer.
I am curious: what pKi value has been reported for `CCCN(CCC)C(=O)Cc1c(-c2ccc(O)cc2)nc2ccc(Cl)cn12` ? 7.65

I am curious: what pKi value has been reported for `CCCN(CCC)C(=O)Cc1c(-c2ccc(Cl)cc2)nc2ccc(Cl)cn12` ? 8.10

Would you kindly look at the next entry?
I am curious: what pKi value has been reported for `CCCN(CCC)C(=O)Cc1c(-c2ccc(OC)cc2)nc2ccc(Cl)cn12` ? 9.30

----------
EXPERIMENTAL_TARGET: Translocator protein (Rattus norvegicus, UniProt P16257)
TEST_PROTOCOL: Displacement of [3H]-PK11195 from TSPO receptor in Sprague-Dawley rat brain incubated for 30 mins by […] analysis
Assay type: tissue-based
READOUT: pKi
When answering, recall that pKi equals minus log10 of the concentration in mol/L, and write that number alone.

Identify the measured pKi of `CN(C(=O)Cn1c(=O)oc2ccc(-c3ccc(OCC[18F])cc3)cc21)c1ccccc1` for Translocator protein (Rattus norvegicus, UniProt P16257). 8.18

----------
In this section we review reported pKi values for a set of molecules.
TEST_PROTOCOL: Binding affinity to CBR (unknown origin)
Set-up: species or system Homo sapiens
When answering, recall that pKi equals minus log10 of the concentration in mol/L, and write that number alone.

These solved cases illustrate the format of a correct answer.
I am curious: what pKi value has been reported for `CCCN(CCC)C(=O)Cc1c(-c2ccc(Cl)cc2)nc2ccc(Cl)cn12` ? 9.00

I am curious: what pKi value has been reported for `CCCN(CCC)C(=O)Cc1c(-c2ccc(OC)cc2)nc2ccc(Cl)cn12` ? 6.98

I am curious: what pKi value has been reported for `CN1C(=O)CN=C(c2ccccc2F)c2cc([N+](=O)[O-])ccc21` ? 8.29

***
I am curious: what pKi value has been reported for `CCCN(CCC)C(=O)Cc1c(-c2ccc(O)cc2)nc2ccc(Cl)cn12` ? 8.98

----------
EXPERIMENTAL_TARGET: Translocator protein (Rattus norvegicus)
TEST_PROTOCOL: Binding affinity to TSPO in Sprague-Dawley rat brain
Assay type: tissue-based
READOUT: Ki (nM)
Record the value in nM, omitting the unit from your answer.

I am curious: what Ki value has been reported for `CN(C(=O)Cn1c(=O)oc2ccc(-c3cccc([N+](=O)[O-])c3)cc21)c1ccccc1O[11CH3]` ? 4.9

----------
TEST_PROTOCOL: Stability of the compound in human serum assessed as intact compound level measured after 24 hrs by iTLC-SG analysis
Format: ADME, cell-free
RECORDED_CONDITIONS: read-out: Stability
READOUT: remaining at 24 h

I am curious: what remaining at 24 h value has been reported for COC(=O)C(Cc1c[nH]c2ccccc12)NC(=O)Cn1c(=O)oc2ccc(Br)cc21 (stereo unspecified) ? > 91%
